# Tested on: biotinyl-Ile-oxazolone
# assay.details: self-aminoacylation, catalytic enhancement (BIO) (fold over background); higher = more active; k-Seq, kA / k0A0; sequences stand for … in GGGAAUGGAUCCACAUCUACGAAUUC…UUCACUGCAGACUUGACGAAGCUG
Variants at the floor of the assay were thinned out.
property.name: self-aminoacylation
Lab note: jot the number down without any unit.

Prompt: Lookup: self-aminoacylation / biotinyl-Ile-oxazolone / AUGCACCUAGGUCAUCGGUUG [Fam2.2 aminoacylation ribozyme variant]
Response: 1.42

Prompt: Next up: GCACACCUCAAGCAAUCGGUC [Fam1B.1 aminoacylation ribozyme variant]
Response: 1.4

Prompt: Cool, now AUUACCCUGGUCAUCGGCUGA [Fam2.1 aminoacylation ribozyme variant]
Response: 2.74

Prompt: Consider next the sequence CUCCUUCAAACAAUCGGCCUG [Fam1A.1 aminoacylation ribozyme variant] in the same way.
Response: 2.04

Prompt: Try CUACUUUAAAAAAUCGGUCUG [Fam1A.1 aminoacylation ribozyme variant] next.
Response: 1.01

---
Prompt: Any idea what self-aminoacylation came out for AUUACCCUAGUCAUCGAGUAA [Fam2.1 aminoacylation ribozyme variant] on biotinyl-Ile-oxazolone?
Response: 1.28

Prompt: Could you do the same for AUUAGCCUAGGUCAUCGGGUG [Fam2.2 aminoacylation ribozyme variant] , please?
Response: 19

Prompt: What do you have for AUGCACCUAGGACAUCGGGUG [Fam2.2 aminoacylation ribozyme variant] ?
Response: 3.37

Prompt: Quick one: AUACCUCAAACAAUCGGUCUG [Fam1A.1 aminoacylation ribozyme variant]
Response: 0.977

---

# System: biotinyl-Ile-oxazolone
# assay.details: self-aminoacylation, catalytic enhancement (BIO) (fold over background); higher = more active; k-Seq, kA / k0A0; sequences stand for … in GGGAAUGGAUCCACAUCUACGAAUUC…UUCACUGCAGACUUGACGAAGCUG
This sample holds only a part of the variants without activity.
property.name: self-aminoacylation
Note: the reply should be a number with no unit written.

Below are worked cases with known answers.
Prompt: Recorded self-aminoacylation of CGACGUCAAACAAUCGGUCUG [Fam1A.1 aminoacylation ribozyme variant] , please.
Response: 1.25

Prompt: Would you kindly repeat that for ACACACUUCCAGCAAUCGGUC [Fam1B.1 aminoacylation ribozyme variant] ?
Response: 1.47

Prompt: Moving on to AUUCACCUAGGUCAUGGGGUU [Fam2.2 aminoacylation ribozyme variant]
Response: 1.5

Please look at the following sequence next.
Prompt: Need self-aminoacylation of UCACACUUCAAGCAAGCGGUC [Fam1B.1 aminoacylation ribozyme variant] , thanks.
Response: 0.965

---

# System: biotinyl-Leu-oxazolone
# assay.details: self-aminoacylation, catalytic enhancement (BLO) (fold over background); higher = more active; k-Seq, kA / k0A0; sequences stand for … in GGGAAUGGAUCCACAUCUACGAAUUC…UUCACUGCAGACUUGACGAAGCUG
Fewer inactive variants are shown than the library holds.
Each entry belongs to exactly one class, chosen by where its self-aminoacylation falls: low group = under 1, middle group = from 1 up to 5, high group = 5 and over

Prompt: Class label required: AAGGUUGCUAAUAUUCGCAAG [Fam3.1 aminoacylation ribozyme variant]
Response: middle group

Prompt: Again, but for UUACCUCAAACAAUCGGUCUG [Fam1A.1 aminoacylation ribozyme variant]
Response: low group

Prompt: Same thing, different sequence: AUUACCCUAGGUCAUCGGGUG [Fam2.2 aminoacylation ribozyme variant]
Response: high group

Prompt: Do the same for AGGUUUGCUAAUAGUCGCAAA [Fam3.1 aminoacylation ribozyme variant] please
Response: middle group

Prompt: Same question for UCACACUUCAAGCAAUCAGUC [Fam1B.1 aminoacylation ribozyme variant] please.
Response: low group

Others:
Prompt: Just checking, what class would you give AUACUCCUAGGUCAUCGGGUG [Fam2.2 aminoacylation ribozyme variant] here?
Response: high group

Prompt: // next record AAGUUUACUAAUAGUCGCAAA [Fam3.1 aminoacylation ribozyme variant]
Response: middle group

Prompt: // query: UUUCACCUAGGUCACCGGGUG [Fam2.2 aminoacylation ribozyme variant]
Response: high group

---

Listing of recorded self-aminoacylation by entry.
# System: biotinyl-Trp-oxazolone
# assay.details: self-aminoacylation, catalytic enhancement (BWO) (fold over background); higher = more active; k-Seq, kA / k0A0; sequences stand for … in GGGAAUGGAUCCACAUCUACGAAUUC…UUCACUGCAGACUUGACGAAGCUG
Variants at the floor of the assay were thinned out.

// known answers, use as guide
Prompt: Form field: reported self-aminoacylation of AUUGCCCUGGUCCUCGAGUGA [Fam2.1 aminoacylation ribozyme variant]
Response: 3.66

Prompt: Thanks! And CCACACUUCAAGCAAUAGGCC [Fam1B.1 aminoacylation ribozyme variant] ?
Response: 0.71

Prompt: Also CCACACUUCAAGCAUUCGUUC [Fam1B.1 aminoacylation ribozyme variant] ?
Response: 0.688

Let's switch to this sequence now.
Prompt: Tell me the measured self-aminoacylation of CCACACUUCCAGCAAUCGGAC [Fam1B.1 aminoacylation ribozyme variant] , please.
Response: 0.846

---

Documented self-aminoacylation across a set of sequences
# Test system: biotinyl-Val-oxazolone
# assay.details: self-aminoacylation, catalytic enhancement (BVO) (fold over background); higher = more active; k-Seq, kA / k0A0; sequences stand for … in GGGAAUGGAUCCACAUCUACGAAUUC…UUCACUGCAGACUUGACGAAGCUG
Fewer inactive variants are shown than the library holds.
In your answer, state the number alone without any accompanying words.

Prompt: Please state recorded self-aminoacylation (tested on biotinyl-Val-oxazolone) of AUCCACCUAGGUCCUCGGGUG [Fam2.2 aminoacylation ribozyme variant]
Response: 4.71

Next:
Prompt: Provide the documented self-aminoacylation with biotinyl-Val-oxazolone as the system for CUACUUCAUAGAAUCGGUCUG [Fam1A.1 aminoacylation ribozyme variant]
Response: 0.749

Prompt: Consider next the sequence AAGUUUGAUAAUACUCGCAAG [Fam3.1 aminoacylation ribozyme variant] in the same way.
Response: 0.511

---

# Test system: biotinyl-Ile-oxazolone
# assay.details: self-aminoacylation, catalytic enhancement (BIO) (fold over background); higher = more active; k-Seq, kA / k0A0; sequences stand for … in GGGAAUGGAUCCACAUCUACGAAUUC…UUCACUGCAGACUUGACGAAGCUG
Variants at the floor of the assay were thinned out.
property.name: self-aminoacylation

Prompt: Value lookup for self-aminoacylation; key = CUACUUCCAGCAAUCGGUCUG [Fam1A.1 aminoacylation ribozyme variant]
Response: 0.87

Prompt: Moving on to the next sequence: AUUACGCUGGUCCUCGAGUGA [Fam2.1 aminoacylation ribozyme variant]
Response: 4.15

Prompt: Please do the same for GUCCUUCAAACAAUCGGUCUG [Fam1A.1 aminoacylation ribozyme variant] as well.
Response: 1.31

Continuing:
Prompt: Item AUUACCCCGGUCAUCGAGAGA [Fam2.1 aminoacylation ribozyme variant] has what recorded self-aminoacylation?
Response: 0.935

---

# Tested on: biotinyl-Ile-oxazolone
# assay.details: self-aminoacylation, catalytic enhancement (BIO) (fold over background); higher = more active; k-Seq, kA / k0A0; sequences stand for … in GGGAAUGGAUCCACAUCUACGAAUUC…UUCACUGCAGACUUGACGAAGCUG
Variants at the floor of the assay were thinned out.
self-aminoacylation listing for selected sequences.
Number only, no unit.

Prompt: Recorded self-aminoacylation of AUUACCAUGGUCAUCCAGUGA [Fam2.1 aminoacylation ribozyme variant] , please.
Response: 3.62

Prompt: Please give the result for AGUGACCUAGGUCAUCGGGUG [Fam2.2 aminoacylation ribozyme variant] too.
Response: 3.48

Prompt: Can you handle AUUCACCGAGGUCACCGGGUG [Fam2.2 aminoacylation ribozyme variant] next?
Response: 6.91

Prompt: Query AUUCACGUAGGUAAUCGGGUG [Fam2.2 aminoacylation ribozyme variant] next
Response: 2.91

Prompt: Please give the result for AAAUUUGCUAAUAGUUGCAAG [Fam3.1 aminoacylation ribozyme variant] too.
Response: 1.61

Prompt: Also, AUUACCCUGGUCAUGGAGAGA [Fam2.1 aminoacylation ribozyme variant] please.
Response: 0.877

Prompt: Do the same for AUUCAUCUAGGUCAUCGGAUG [Fam2.2 aminoacylation ribozyme variant] please
Response: 0.962

Prompt: Note, next up: AUUUACCUAGGUUAUCGGGUG [Fam2.2 aminoacylation ribozyme variant]
Response: 2.29

Prompt: Do the same for AGCUUUGCUAAUAGUCGCAAG [Fam3.1 aminoacylation ribozyme variant] please
Response: 2.95

---

# Test system: biotinyl-Leu-oxazolone
# assay.details: self-aminoacylation, catalytic enhancement (BLO) (fold over background); higher = more active; k-Seq, kA / k0A0; sequences stand for … in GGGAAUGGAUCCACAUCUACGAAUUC…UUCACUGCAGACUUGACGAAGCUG
Variants at the floor of the assay were thinned out.
# if value of self-aminoacylation reaches 2, tag t; if it stays below, tag f

Please review the entries below; each comes with its answer.
Prompt: Is the recorded value of self-aminoacylation equal to or greater than 2 for this sequence? AUCCCCCUAGGUCAUCGGGUG [Fam2.2 aminoacylation ribozyme variant]
Response: t

Prompt: Check CUACUUGAAACAAUCGGUCUG [Fam1A.1 aminoacylation ribozyme variant] too.
Response: f

New cases:
Prompt: Test whether the sequence AUUCACCUAGGUAAUCGCGUG [Fam2.2 aminoacylation ribozyme variant] records self-aminoacylation of 2 or higher.
Response: t

Prompt: Then AUUAGCCUGGUCAUCGAGGGA [Fam2.1 aminoacylation ribozyme variant] ?
Response: t

Prompt: Also check AAGUUUACUAAUAGUCACAAG [Fam3.1 aminoacylation ribozyme variant]
Response: f

Prompt: Note, next up: AAGUUUACUAAAAGUCGCAAG [Fam3.1 aminoacylation ribozyme variant]
Response: t
